- Tested on: ATP;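 also: ATP exposure 15 min at 22 °C before imaging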
- ASSAY METHOD TEXT: switch fluorescence ratio, 500 uM ATP over buffer (Cy3 cluster intensity, sum of 5 cycles each) (fold (ratio)); higher = stronger signal-on switching upon ATP binding; sequences stand for … in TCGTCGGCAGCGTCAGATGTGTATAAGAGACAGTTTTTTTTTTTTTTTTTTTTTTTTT…TC
- TEST CONTEXT: aptamer strand: ATP DNA aptamer (quencher-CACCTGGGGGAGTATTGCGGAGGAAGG + anchor), 100 nM annealed; ATP concentration: 500 uM
READOUT LABEL: switch fluorescence ratio

INSERT INTO assay_data (construct_sequence, measured_value) VALUES
  ('TGATTGTTGG', 1.01),
  ('GGTGATGGGA', 0.976),
  ('CAGCAAAAAG', 0.985),
  ('ATGGGTCTT', 1.01),
  ('ATCTGGGAGT', 1.01),
  ('CTGTTTGTGC', 0.975),
  ('ACGACGTGGG', 1),
  ('CATGGTGTGT', 1.01),
  ('TGTTTTGGTT', 0.991),
  ('GAGTCGGCGG', 0.989),
  ('TGAATAATCT', 1.06),
  ('GGGGGGGATT', 1.01),
  ('CATATTTTTA', 1.04),
  ('TCGGTTGCTA', 1.05),
  ('TTTCAGTCAT', 0.978),
  ('ACGGCGTCGC', 1.02),
  ('GACCTCAGGT', 1.08),
  ('TTACTGCATT', 1.11),
  ('CCAGTGAATA', 1.06),
  ('TTCCATGGTC', 1.02),
  ('TATATAATTT', 0.987),
  ('AGCTTTATGT', 1.02),
  ('TATTTATAGT', 1.02),
  ('TGTTTGGTAA', 0.981),
  ('TGGGTTGGCC', 0.99),
  ('AGATGGGTGG', 1.01),
  ('TGGGAGTTGG', 1.03),
  ('AGGGATGGTT', 0.982),
  ('AGGGGATGCT', 1.01),
  ('TAGATGTGTT', 1.01),
  ('TGTCTGGGGG', 1.01),
  ('ATGATTAGGA', 0.987),
  ('GAAGGGAGCG', 0.984),
  ('TGGGGAGCCT', 1.03),
  ('GTGCTGCCGG', 1.01),
  ('AGAGAAGGGA', 1),
  ('TGAGCCCTTT', 1.02),
  ('GGGTTGGCGT', 0.956),
  ('CCGGAGAGGG', 1.7),
  ('GACCCTGATA', 0.987),
  ('CGGGTAACGG', 1.03),
  ('TGACGGGTAC', 1.87),
  ('TTTATGTGTT', 0.984);
